Target System: GABA-A receptor; alpha-1/beta-2/gamma-2 (Homo sapiens, UniProt P14867+P18507+P47870)
Sequence (P14867 whole entry): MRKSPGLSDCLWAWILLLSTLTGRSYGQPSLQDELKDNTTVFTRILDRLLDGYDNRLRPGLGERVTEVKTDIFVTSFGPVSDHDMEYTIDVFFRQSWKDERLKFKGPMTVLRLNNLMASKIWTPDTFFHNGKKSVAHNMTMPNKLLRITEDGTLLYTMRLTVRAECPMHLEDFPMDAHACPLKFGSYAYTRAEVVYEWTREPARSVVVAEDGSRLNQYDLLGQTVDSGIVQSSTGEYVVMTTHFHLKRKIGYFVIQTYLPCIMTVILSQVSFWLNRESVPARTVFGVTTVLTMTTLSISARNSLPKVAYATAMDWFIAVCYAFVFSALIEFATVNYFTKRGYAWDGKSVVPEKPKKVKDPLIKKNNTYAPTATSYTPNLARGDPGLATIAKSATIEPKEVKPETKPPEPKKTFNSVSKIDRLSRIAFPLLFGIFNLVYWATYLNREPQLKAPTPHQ
Sequence (P47870 whole entry): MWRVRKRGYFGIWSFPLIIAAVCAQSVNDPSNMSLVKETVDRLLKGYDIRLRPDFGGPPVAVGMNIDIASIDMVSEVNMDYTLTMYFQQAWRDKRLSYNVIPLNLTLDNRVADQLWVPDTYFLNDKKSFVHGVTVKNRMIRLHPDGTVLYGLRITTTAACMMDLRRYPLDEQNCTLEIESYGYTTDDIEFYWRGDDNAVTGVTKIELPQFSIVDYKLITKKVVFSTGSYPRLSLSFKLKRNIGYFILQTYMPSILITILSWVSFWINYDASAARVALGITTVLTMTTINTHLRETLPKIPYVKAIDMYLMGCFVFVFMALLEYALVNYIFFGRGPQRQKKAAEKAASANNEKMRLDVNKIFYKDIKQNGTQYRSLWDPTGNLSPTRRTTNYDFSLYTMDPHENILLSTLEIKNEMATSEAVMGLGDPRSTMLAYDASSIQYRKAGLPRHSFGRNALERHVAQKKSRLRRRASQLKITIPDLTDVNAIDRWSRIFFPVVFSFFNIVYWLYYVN
Sequence (P18507 whole entry): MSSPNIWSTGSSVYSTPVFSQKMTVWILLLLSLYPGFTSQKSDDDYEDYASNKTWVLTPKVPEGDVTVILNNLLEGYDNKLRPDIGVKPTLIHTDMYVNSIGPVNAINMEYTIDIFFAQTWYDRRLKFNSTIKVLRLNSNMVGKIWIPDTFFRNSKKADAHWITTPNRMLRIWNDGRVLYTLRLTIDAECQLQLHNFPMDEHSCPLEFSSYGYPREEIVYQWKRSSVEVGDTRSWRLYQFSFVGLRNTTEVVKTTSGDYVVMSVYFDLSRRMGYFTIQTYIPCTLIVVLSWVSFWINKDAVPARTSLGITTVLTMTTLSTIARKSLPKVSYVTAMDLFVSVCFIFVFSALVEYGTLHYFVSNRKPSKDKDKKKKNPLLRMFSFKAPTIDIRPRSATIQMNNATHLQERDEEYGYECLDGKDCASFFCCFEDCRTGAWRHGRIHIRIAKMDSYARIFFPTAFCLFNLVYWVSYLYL
Assay Name: Positive allosteric modulator activity at human alpha1beta2Sgamma2S GABA-A receptor expressed in Xenopus laevis oocytes in presence of EC5 GABA by two electrode voltage-clamp assay
Reported Property: EC50 (µM)
Please give a number only; it is taken to be in µM.

Bench note: what EC50 did CN1CC[C@]2(O)c3ccccc3N(C)[C@]12c1ccccc1 show?
110

====

Target System: GABA-A receptor; alpha-1/beta-2/gamma-2 (Homo sapiens) (UniProt P14867+P47870+P18507)
Assay Name: Positive allosteric modulator activity at human alpha1beta2Sgamma2S GABA-A receptor expressed in Xenopus laevis oocytes assessed as potentiation of EC10 GABA response by two electrode voltage-clamp assay relative to control
Type: cell-based
Condition Notes: Oocyte, filed as positive allosteric modulator
Reported Activity is given for each of the following molecules.
Please give a number only; it is taken to be in %.

Some molecules with recorded Activity:
| Molecule | Reported Property | Endpoint Unit | Readout Value |
| --- | --- | --- | --- |
| CN1CC[C@@]2(O)c3ccccc3N(C)[C@@]12c1ccc(Br)cc1 | Activity | % | 155 |
| CN1CC[C@]2(O)c3ccccc3N(C)[C@]12c1ccccc1 (racemic) | Activity | % | 62 |

Bench note: what Activity did CN1CC[C@]2(O)c3cc(I)ccc3N(C)[C@]12c1ccccc1 show?
231

Bench note: what Activity did CN1CC[C@]2(O)c3ccccc3N(C)[C@]12c1ccccc1 show?
125

Bench note: what Activity did CN1CC[C@]2(O)c3cc(C(F)(F)F)ccc3N(C)[C@]12c1ccccc1 show?
108

Bench note: what Activity did CN1CC[C@]2(F)c3ccccc3N(C)[C@]12c1ccccc1 show?
100

Bench note: what Activity did CN1CC[C@]2(O)c3cc(Br)ccc3N(C)[C@]12c1ccccc1 show?
213

Bench note: what Activity did CN1c2ccccc2[C@@]2(O)CCN[C@@]12c1ccccc1 show?
41

Bench note: what Activity did CN1CC[C@]2(O)c3ccccc3N(C)[C@]12c1ccc(Br)cc1 show?
98

====

Target System: GABA-A receptor; alpha-1/beta-2/gamma-2 (Homo sapiens) (UniProt P14867+P47870+P18507)
Assay Name: Positive allosteric modulator activity at human alpha1beta2Sgamma2S GABA-A receptor expressed in Xenopus laevis oocytes assessed as potentiation of EC10 GABA response by two electrode voltage-clamp assay relative to control
Format: cell-based
Condition Notes: Oocyte
Reported Property: Activity

| Record Smiles | Target System | Activity |
| --- | --- | --- |
| CN1c2ccccc2[C@@]2(O)CCN(C(=O)OCc3ccccc3)[C@@]12c1ccccc1 | GABA-A receptor; alpha-1/beta-2/gamma-2 (Homo sapiens) (UniProt P14867+P47870+P18507) | 9.6% |

Bench note: what Activity did COc1ccc2c(c1)[C@@]1(O)CCN(C)[C@@]1(c1ccccc1)N2C show?
17%

Bench note: what Activity did CN1CC[C@@]2(O)c3cc(N4CCOCC4)ccc3N(C)[C@@]12c1ccccc1 show?
-4.8%

Bench note: what Activity did CO[C@]12CCN(C)[C@@]1(c1ccccc1)N(C)c1ccccc12 show?
21%

Reference source for all entries: ChEMBL document CHEMBL4725470
